Measured PBM binding z-score by item
system: PPARg DBDmut:RXRa IVT, anti-PPARg (DBD mutation: PPARg1 K132A/R137A, NR concentration 270 nM, RXRa partner concentration 90 nM); experiment: PBM binding z-score (relative to random genomic background probes); higher = stronger binding; sequences stand for … in GC…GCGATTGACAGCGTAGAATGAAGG
Enter a number only.

Examples with answers:
[
  {
    "SEQ": "GCTGCTACGTCAGGTTGGTCAGCTAACGGGTACG",
    "PBM binding z-score": -0.712
  },
  {
    "SEQ": "CCGACTGGGGCATAAGGGTACCATAAGCCAGCCC",
    "PBM binding z-score": -1.37
  },
  {
    "SEQ": "TCATATAGGTAAATGCTAGGTGGAAGTCCGATCT",
    "PBM binding z-score": 1.68
  },
  {
    "SEQ": "AGTCAAAGTTCATCTATGTAACGTAAGATATGCT",
    "PBM binding z-score": 0.955
  },
  {
    "SEQ": "AGAACGAGGGCACGCGGAGTTGATAGCAGAGTAG",
    "PBM binding z-score": 0.563
  }
]

Value lookup for PBM binding z-score; key = `CGAACGAGGGCATGAGTTGGTAGCAAATGCCGAT` 0.738

Proceed to `CCGACTGGGGCAAAGCTTACCATACTCAGTACGA` -0.291

Now this one: `TCTAGCAGGCGAGAGGGTCACTCAAGAGGTACGG` -0.781

Now this one: `ATCTCTAGGTAAGAGTTCAGTGAATCCCGAGGAT` 0.769

Query `CGTCCAAGGACAGAGAGGTCAGTGAATGCCGAGT` next -0.629

Also need `GATACAGGGTCAAGGCCAGAGCACGCGTATTGAT` , thanks. 0.585

Same question for `TTACCAAGGTGCAGGTCGTTGATCCCTCTGTAGA` please. -0.281

---

tested on: LXRb homodimer (NR concentration 270 nM); test: PBM binding z-score (relative to random genomic background probes); higher = stronger binding; sequences stand for … in GC…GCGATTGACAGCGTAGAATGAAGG
This listing pairs sequences with measured PBM binding z-score.
Quick one: just the number, no unit, thanks!

[
  {
    "SEQ": "TCTGCTAGGTCAACGATGGTCGGCTAATCTGCTA",
    "PBM binding z-score": -0.00978
  },
  {
    "SEQ": "ATCTCTTGGTAAAGATAGTTCAGTGAATGCAAAT",
    "PBM binding z-score": 0.423
  },
  {
    "SEQ": "CGAACTAGGTTATCCAGGACAGTGAATACATTGA",
    "PBM binding z-score": -0.168
  },
  {
    "SEQ": "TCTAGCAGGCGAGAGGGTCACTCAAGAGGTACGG",
    "PBM binding z-score": -1.27
  },
  {
    "SEQ": "ATCTCTAGGTAAAAGTTCAGCGAATCCCGAGGAT",
    "PBM binding z-score": 0.982
  }
]

Next sequence, PBM binding z-score to be filled in.
Request body: readout PBM binding z-score, system LXRb homodimer (NR concentration 270 nM), query `CAAACTACGTCACGAAAGGTCAAAGTCGAATGAC` . Return the value. 2.44

Where these numbers come from: the supplement of paper PMC6555819
